Item-by-item account of cytotoxicity at 70.5 h
- Procedure Details: Human HepG2 cell viability assay in 384 well format
- Format: toxicity, cell-based
- Parameters: dose 125 nL, time 70.5 hour; concentration not given beside the values
- Test Context: HepG2 cells, read-out: Inhibition
// note: answer is a bare numeric in %

Solved cases (8 shown):
{"Compound": "N#CC(NC(=O)CCC1CCC1)c1cnn(-c2ccccc2)c1 (configuration not stated)", "Output Unit": "%", "cytotoxicity at 70.5 h": 17.3}
{"Compound": "CCCNc1nnc(S(=O)(=O)CCOCC)s1", "Output Unit": "%", "cytotoxicity at 70.5 h": -0.768}
{"Compound": "O=C1CC2(CCN(Cc3ccccn3)C2)CN1c1cncnc1 (configuration not stated)", "Output Unit": "%", "cytotoxicity at 70.5 h": -16.1}
{"Compound": "CC(C)(C)c1cnc(CN2CCC(c3ccnn3CCO)CC2)o1", "Output Unit": "%", "cytotoxicity at 70.5 h": -11.1}
{"Compound": "CC(NC(=O)C1CCCC1)c1nncn1C(C)C (configuration not stated)", "Output Unit": "%", "cytotoxicity at 70.5 h": 9.12}
{"Compound": "Cc1nn(C)c(N(C)C)c1CNCc1ccnn1C", "Output Unit": "%", "cytotoxicity at 70.5 h": -5.03}
{"Compound": "Cn1c(NC(=O)CNC(=O)C2CC2)nc2cc(Cl)ccc21", "Output Unit": "%", "cytotoxicity at 70.5 h": -7.94}
{"Compound": "O=C(NC1CC1)[C@@H]1C[C@@H]2CCN(Cc3ccoc3)C[C@@H]2O1", "Output Unit": "%", "cytotoxicity at 70.5 h": -8.25}

Request: Suppose we examine the compound `CCN1Cc2c(C(=O)NCC3CC3)ncn2-c2ccccc2S1(=O)=O` ; what cytotoxicity at 70.5 h value has been reported?
Result: -9.23

Request: Also `COc1ncccc1C(=O)Nc1ccccc1-c1ccc(=O)n(C)n1` , if possible.
Result: 3.64

Request: Also `Cc1nn(C)c(N(C)C)c1CNCc1cccnc1N(C)C` , if possible.
Result: 23.9

Request: Also `CC(C)c1nnc(CN(C)Cc2ccccc2-c2ccccc2)o1` , if possible.
Result: -6.61
